- measuredTarget: T1, L-selectin (LS-Rg) (Homo sapiens, UniProt P14151 P14151:39-332)
- T1 chain: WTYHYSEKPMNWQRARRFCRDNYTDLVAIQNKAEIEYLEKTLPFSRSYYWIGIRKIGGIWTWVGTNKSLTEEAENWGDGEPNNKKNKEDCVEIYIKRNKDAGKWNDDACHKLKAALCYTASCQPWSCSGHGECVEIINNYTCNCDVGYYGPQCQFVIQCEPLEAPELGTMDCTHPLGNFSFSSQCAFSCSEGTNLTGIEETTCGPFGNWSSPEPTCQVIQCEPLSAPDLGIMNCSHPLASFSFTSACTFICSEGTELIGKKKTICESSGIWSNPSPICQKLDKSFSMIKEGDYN
- assayNotes: filter; room temp; 11.8 nM at 37 C
- experimentalContext: tags: human IgG2 Fc fusion (provided by A. Varki); label: 32P; hairpin
pKd: −log10 of the molar value.
measurementName: pKd

binder: 111 (ssDNA) DNA: CTACCTACGATCTGACTAGCTACACAAGGTGCTAAACGTAGAGCCAGATCGGATCTGAGCGCTTACTCTCATGTAGTTCC
measurementName: pKd
dataValue: 9.48

Source of measurements: patent US6001988
